molecular target: Tyrosine-protein phosphatase non-receptor type 1 (Homo sapiens) (UniProt P18031); experiment: Inhibition of PTP1B assessed as p-nitrophenolate ions release at 100 uM
Sequence (P18031 whole entry): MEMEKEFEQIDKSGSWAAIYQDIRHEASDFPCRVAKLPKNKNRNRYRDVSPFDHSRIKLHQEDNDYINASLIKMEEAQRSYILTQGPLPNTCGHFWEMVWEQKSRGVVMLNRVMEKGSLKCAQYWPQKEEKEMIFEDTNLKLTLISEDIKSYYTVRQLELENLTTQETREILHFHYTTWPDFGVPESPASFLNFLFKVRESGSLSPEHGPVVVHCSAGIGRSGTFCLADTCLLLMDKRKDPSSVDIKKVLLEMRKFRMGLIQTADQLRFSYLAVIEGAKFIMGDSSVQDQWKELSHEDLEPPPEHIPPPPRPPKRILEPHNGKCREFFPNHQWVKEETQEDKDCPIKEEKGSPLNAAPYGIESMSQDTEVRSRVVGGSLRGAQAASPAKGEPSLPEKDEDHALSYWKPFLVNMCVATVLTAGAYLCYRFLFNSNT
Answer each item with its documented inhibition.
# value in %; strip the unit string

Please fill in: inhibition reported for N#Cc1ccc(OCC(O)CN2CCN(Cc3ccccc3)CC2)cc1 (centres undefined) = 5.1

Please fill in: inhibition reported for N#Cc1ccc(OCC(O)CN2CCN(c3cccc(C(F)(F)F)c3)CC2)cc1 (centres undefined) = 18.8

Please fill in: inhibition reported for O=[N+]([O-])c1ccc(N2CCN(CC(O)COc3ccc(F)cc3)CC2)cc1 (centres undefined) = 24

Please fill in: inhibition reported for N#Cc1ccc(OCC(O)CN2CCN(Cc3ccc4c(c3)OCO4)CC2)cc1 (centres undefined) = 0.5

Data provenance is ChEMBL document CHEMBL1255537.
